Target: T1, EGFRvIII on U87-EGFRvIII cells (human, UniProt P00533 25-1210)
T1 construct: whole, on cells; EGFRvIII is a deletion variant of it; also called U87MG-EGFRvIII; mutant human EGFR
Test: FACS on U87MG-EGFRvIII cells, method of Example 9; PBS control 1
measured metric: mean fluorescence intensity (MFI)

Given the binder S29/CD3 single chain bifunctional antibody (bispecific antibody, part only; not given: linker, anti-CD3 scFv, His tag, not shown: another chain or arm of the molecule) DIQMTQSPSSLSASVGDRVTITCHASQDINVNIGWLQQKPGKAFKGLIYHGKNLEDGVPSRFSGSGSGTDFTLTISSLQPEDFATYYCNQYENFPLTFGQGTKVEIKRGGGGSGGGGSGGGGSDVQLVESGGGLVQPGGSLRLSCAVSGYSITSDYAWNWIRQAPGKGLEWLGYISYRGRTRYNPSLKSRISITRDNSKNTFFLQLNSLRAEDTAVYYCARLGRGFRYWGQGTLVTVSS , write its reported mean fluorescence intensity (MFI).
34.6
